- Test system: RXF 393
- ASSAY_OVERVIEW: NCI tumour cell line growth inhibition, 48 h
Calls of active or inactive are those of the source. Cut-off read from the data, not from the text of the source: active = GI50 up to about 1.1 µM and inactive = higher.
# valid calls are active, inactive; nothing else

Reference set (5 entries):
{"COMPOUND": "N=c1oc2ccccc2cc1C(=O)Nc1nccs1", "CLASS_ASSIGNMENT": "inactive"}
{"COMPOUND": "CC(=O)O[C@H]1C(=O)[C@@]2(C)[C@H]([C@H](OC(=O)c3ccccc3)[C@]3(O)C[C@H](OC(=O)[C@H](O)[C@@H](NC(=O)c4ccco4)c4ccccc4)C(C)=C1C3(C)C)[C@]1(OC(C)=O)CO[C@@H]1C[C@@H]2O", "CLASS_ASSIGNMENT": "active"}
{"COMPOUND": "C[C@H](N)C(=O)N[C@@H]1[C@H]2C(=C(O)C[C@@H](O)[C@@H]2O)C(=O)O[C@]1(C)C(Cl)Cl", "CLASS_ASSIGNMENT": "active"}
{"COMPOUND": "CCCCn1c(C)c2c(c1C)C(=O)N(CC(O)CN1CCc3ccccc3C1)C2=O (centres undefined)", "CLASS_ASSIGNMENT": "inactive"}
{"COMPOUND": "COc1ccc2cc(C(=O)NCCc3ccccc3)ccc2c1OC", "CLASS_ASSIGNMENT": "inactive"}

QUERY: Which outcome was entered for the compound C=CC(C)(C)n1cc(C2=C(O)C(=O)C(c3c(CC=C(C)C)[nH]c4ccccc34)=C(O)C2=O)c2ccccc21 in this test?
RESULT: inactive

QUERY: Which outcome was entered for the compound O=C(O)c1nc2ccccc2nc1Nc1ccc(Cl)c(Cl)c1 in this test?
RESULT: inactive

QUERY: Which outcome was entered for the compound CCOc1ccc(/N=C\c2cc(OC)c(OC)c(OC)c2)cc1 in this test?
RESULT: inactive

QUERY: Which outcome was entered for the compound C[C@]12CCC3[C@@H](CC[C@@H]4c5nonc5CC[C@]34C)C1CCC(=O)N2 (some centres undefined) in this test?
RESULT: inactive

---

- System: SF-268
- ASSAY_OVERVIEW: NCI tumour cell line growth inhibition, 48 h
Activity calls are given as the source filed them. Cut-off read from the data, not from the text of the source: active = GI50 up to about 1.1 µM and inactive = higher.
MEASURED_ENDPOINT: GI50

Some solved entries appear below for comparison.
{"COMPOUND": "NC(CCC(=O)O)(CCC(=O)O)CCC(=O)O", "GI50": "> 100 µM (inactive)"}
{"COMPOUND": "CCOC(=O)c1cc2nc3ccccc3c(=O)n2c2ccccc12", "GI50": "> 10 µM (inactive)"}
{"COMPOUND": "O=C(Nc1ccccc1)Nn1c(-c2cccs2)nc2ccc(I)cc2c1=O", "GI50": "30.4 µM (inactive)"}
{"COMPOUND": "CCOC(=O)n1c2ccccc2c(=O)n1CCO", "GI50": "> 100 µM (inactive)"}
{"COMPOUND": "CCOC(=O)NC(=O)c1cn(CCN2CCN(C(=O)CCCCCCCCCCNc3ncnc4[nH]cnc34)CC2)c(=O)[nH]c1=O", "GI50": "13.1 µM (inactive)"}

QUERY: Can you share its GI50? I mean this compound: [O-][S+]1Nc2cccc(C(F)(F)F)c2S1 (stereo not given)
RESULT: 48 µM (inactive)

QUERY: Can you share its GI50? I mean this compound: Cc1ccc(/N=N/c2c(C)nn(-c3ccccc3)c2-c2ccccc2)c(Br)c1
RESULT: > 100 µM (inactive)

QUERY: Can you share its GI50? I mean this compound: COC(=O)C1C2OC(C)(C)OC2CN1S(=O)(=O)c1ccc(C)cc1 (stereo not given)
RESULT: > 100 µM (inactive)

QUERY: Can you share its GI50? I mean this compound: Cc1ccc(Nc2nc(C)c(C(/C=C/c3ccc4c(c3)OCO4)=N/Nc3ccc([N+](=O)[O-])cc3[N+](=O)[O-])s2)c([N+](=O)[O-])c1
RESULT: 53.2 µM (inactive)

QUERY: Can you share its GI50? I mean this compound: CC(C)(C)OC[C@H](O)CC#N
RESULT: > 100 µM (inactive)

---

- Test system: OVCAR-5
- ASSAY_OVERVIEW: NCI tumour cell line growth inhibition, 48 h
Activity calls are given as the source filed them. No stated cut-off is given here; in the data, active = GI50 up to about 1.1 µM and inactive = higher.
MEASURED_ENDPOINT: GI50

Some solved entries appear below for comparison.
{"MOLECULE": "CN(C)S(=O)(=O)Nc1nnc(S(N)(=O)=O)s1", "TARGET_OF_ASSAY": "OVCAR-5", "MEASURED_ENDPOINT": "GI50", "MEAS_VALUE": "> 100 µM (inactive)"}
{"MOLECULE": "N#CC(C#N)=C(N)/C(C#N)=C/c1ccc(O)c(O)c1", "TARGET_OF_ASSAY": "OVCAR-5", "MEASURED_ENDPOINT": "GI50", "MEAS_VALUE": "> 58.3 µM (inactive)"}
{"MOLECULE": "O=C1CCCCC1CN1CCCCC1 (centres undefined)", "TARGET_OF_ASSAY": "OVCAR-5", "MEASURED_ENDPOINT": "GI50", "MEAS_VALUE": "> 100 µM (inactive)"}

QUERY: Can you share its GI50? I mean this molecule: Nc1ccccc1C(=O)NNC(=O)c1ccccc1N
RESULT: > 100 µM (inactive)

QUERY: Can you share its GI50? I mean this molecule: S=C=NCc1ccccc1 [BENZYL ISOTHIOCYANATE]
RESULT: 10.9 µM (inactive)

QUERY: Can you share its GI50? I mean this molecule: O=[N+]([O-])c1cc2c(c3nonc13)OCCCCO2
RESULT: 12.1 µM (inactive)

QUERY: Can you share its GI50? I mean this molecule: CCCCOC(=O)CN1C(=O)c2ccccc2C1=O
RESULT: > 100 µM (inactive)

QUERY: Can you share its GI50? I mean this molecule: O=C(O)c1nc2ccccc2nc1Nc1ccc(Cl)c(Cl)c1
RESULT: 39.6 µM (inactive)

QUERY: Can you share its GI50? I mean this molecule: COc1ccc(C2S/C(=C\c3cccc([N+](=O)[O-])c3)C(=O)N2NC(=O)Cc2ccccc2)cc1 (centres undefined)
RESULT: > 100 µM (inactive)

QUERY: Can you share its GI50? I mean this molecule: CN1CCCCC1CCN1CCCCC1 (centres undefined)
RESULT: > 100 µM (inactive)

QUERY: Can you share its GI50? I mean this molecule: CCc1n[nH]c(=O)[nH]1
RESULT: > 100 µM (inactive)

QUERY: Can you share its GI50? I mean this molecule: COc1ccc(S(=O)(=O)n2c3c(c4ccccc42)[C@@H]2[C@@H](CCCN2C(=O)C[S+]([O-])c2ccc(C)cc2)[C@H](Cl)C3)cc1 (some centres undefined)
RESULT: > 100 µM (inactive)

QUERY: Can you share its GI50? I mean this molecule: N#C/C(=C1\SC(C(N)=O)=C(N)N1c1ccccc1)c1nc2ccccc2[nH]1
RESULT: > 100 µM (inactive)

QUERY: Can you share its GI50? I mean this molecule: Cc1ccc(S[C@@H](C)[C@@](O)(CF)CN(Cc2ccccc2)C(=O)C(F)(F)F)cc1
RESULT: 14.8 µM (inactive)

QUERY: Can you share its GI50? I mean this molecule: CC1(C)CC2=NO[Se]3=C2C(=NO3)C1
RESULT: 5.11 µM (inactive)

QUERY: Can you share its GI50? I mean this molecule: COC(=O)CCc1c(Cc2ccc[nH]2)[nH]c(C(=O)OCc2ccccc2)c1C
RESULT: 35.9 µM (inactive)

---

- System: MDA-N
- ASSAY_OVERVIEW: NCI tumour cell line growth inhibition, 48 h
Calls of active or inactive are those of the source. Rule as the data show it: active = GI50 up to about 1.1 µM and inactive = higher. Peptide text beside a SMILES is read from it. * marks the point of attachment. Boc = CC(C)(C)OC(=O)*
# valid calls are active, inactive; nothing else

Reference set (8 entries):
{"MOLECULE": "Cc1ncc([N+](=O)[O-])n1CCNC(=O)Cn1ccnc1[N+](=O)[O-]", "CLASS_ASSIGNMENT": "inactive"}
{"MOLECULE": "CC1CN=C(NCc2ccccc2)S1 (configuration not stated)", "CLASS_ASSIGNMENT": "inactive"}
{"MOLECULE": "CC1(C)CC2=NO[Se]3=C2C(=NO3)C1", "CLASS_ASSIGNMENT": "inactive"}
{"MOLECULE": "COc1ccc2cc(C(=O)NCCc3ccccc3)ccc2c1OC", "CLASS_ASSIGNMENT": "inactive"}
{"MOLECULE": "CCOC(=O)N[C@H]1CCc2cc(OC)c(OC)c(OC)c2-c2ccc(SC)c(=O)cc21", "CLASS_ASSIGNMENT": "active"}
{"MOLECULE": "COC(=O)C1C2OC(C)(C)OC2CN1S(=O)(=O)c1ccc(C)cc1 (configuration not stated)", "CLASS_ASSIGNMENT": "inactive"}
{"MOLECULE": "CCCCn1c(C)c2c(c1C)C(=O)N(CC(O)CN1CCc3ccccc3C1)C2=O (configuration not stated)", "CLASS_ASSIGNMENT": "inactive"}
{"MOLECULE": "O=C(O)c1ccccn1 [2-PICOLINIC ACID]", "CLASS_ASSIGNMENT": "inactive"}

QUERY: Which outcome was entered for the molecule COc1c(C=O)c2c(c(OC)c1OC)-c1ccc(OC)c(=O)cc1[C@@H](NC(C)=O)CC2 in this test?
RESULT: active

QUERY: Which outcome was entered for the molecule Cn1c(-c2ccc(C=O)o2)ccc1-c1ccc(C=O)o1 in this test?
RESULT: inactive

QUERY: Which outcome was entered for the molecule COc1ccc2nc3ccc(OC)cc3c(S(=O)(=O)Cc3ccc([N+](=O)[O-])cc3)c2c1 in this test?
RESULT: inactive

QUERY: Which outcome was entered for the molecule COC(=O)C(Cc1c[nH]c2ccccc12)NC(=O)C(Cc1c[nH]c2ccccc12)NC(=O)C(Cc1c[nH]c2ccccc12)NC(=O)C(Cc1c[nH]c2ccccc12)NC(=O)C(Cc1c[nH]c2ccccc12)NC(=O)OC(C)(C)C (configuration not stated) (Boc-WWWWW-OMe; configuration not given here) in this test?
RESULT: inactive
